Each record here notes measured pKd.
# assay.target: feline FcRn complex (FcRn-α subunit and β-microglobulin), biotin labeled (feline)
# protocol.summary: SPR, pH 6
pKd: −log10 of the molar value.
parameter: pKd

INSERT INTO assay_data (binder, assay_value) VALUES
  ('feline IgG1a A378H (antibody, part only; not given: Variable domains, not shown: another chain or arm of the molecule) constant: ASTTAPSVFPLAPSCGTTSGATVALACLVLGYFPEPVTVSWNSGALTSGVHTFPAVLQASGLYSLSSMVTVPSSRWLSDTFTCNVAHPPSNTKVDKTVRKTDHPPGPKPCDCPKCPPPEMLGGPSIFIFPPKPKDTLSISRTPEVTCLVVDLGPDDSDVQITWFVDNTQVYTAKTSPREEQFNSTYRVVSVLPILHQDWLKGKEFKCKVNSKSLPSPIERTISKAKGQPHEPQVYVLPPAQEELSRNKVSVTCLIKSFHPPDIHVEWEITGQPEPENNYRTTPPQLDSDGTYFVYSKLSVDRSHWQRGNTYTCSVSHEALHSHHTQKSLTQSPGK', 7.31),
  ('feline IgG1a S434H (antibody, part only; not given: variable domains and light chain, not shown: another chain or arm of the molecule; small tags and cut ends) constant: ASTTAPSVFPLAPSCGTTSGATVALACLVLGYFPEPVTVSWNSGALTSGVHTFPAVLQASGLYSLSSMVTVPSSRWLSDTFTCNVAHPPSNTKVDKTVRKTDHPPGPKPCDCPKCPPPEMLGGPSIFIFPPKPKDTLSISRTPEVTCLVVDLGPDDSDVQITWFVDNTQVYTAKTSPREEQFNSTYRVVSVLPILHQDWLKGKEFKCKVNSKSLPSPIERTISKAKGQPHEPQVYVLPPAQEELSRNKVSVTCLIKSFHPPDIAVEWEITGQPEPENNYRTTPPQLDSDGTYFVYSKLSVDRSHWQRGNTYTCSVSHEALHHHHTQKSLTQSPGK', 8.99),
  ('feline IgG1a S252F/S434R (antibody, part only; not given: Variable domains, not shown: another chain or arm of the molecule; small tags and cut ends) constant: ASTTAPSVFPLAPSCGTTSGATVALACLVLGYFPEPVTVSWNSGALTSGVHTFPAVLQASGLYSLSSMVTVPSSRWLSDTFTCNVAHPPSNTKVDKTVRKTDHPPGPKPCDCPKCPPPEMLGGPSIFIFPPKPKDTLFISRTPEVTCLVVDLGPDDSDVQITWFVDNTQVYTAKTSPREEQFNSTYRVVSVLPILHQDWLKGKEFKCKVNSKSLPSPIERTISKAKGQPHEPQVYVLPPAQEELSRNKVSVTCLIKSFHPPDIAVEWEITGQPEPENNYRTTPPQLDSDGTYFVYSKLSVDRSHWQRGNTYTCSVSHEALHRHHTQKSLTQSPGK', 8.44),
  ('feline IgG1a A378M (antibody, part only; not given: Variable domains, not shown: another chain or arm of the molecule) constant: ASTTAPSVFPLAPSCGTTSGATVALACLVLGYFPEPVTVSWNSGALTSGVHTFPAVLQASGLYSLSSMVTVPSSRWLSDTFTCNVAHPPSNTKVDKTVRKTDHPPGPKPCDCPKCPPPEMLGGPSIFIFPPKPKDTLSISRTPEVTCLVVDLGPDDSDVQITWFVDNTQVYTAKTSPREEQFNSTYRVVSVLPILHQDWLKGKEFKCKVNSKSLPSPIERTISKAKGQPHEPQVYVLPPAQEELSRNKVSVTCLIKSFHPPDIMVEWEITGQPEPENNYRTTPPQLDSDGTYFVYSKLSVDRSHWQRGNTYTCSVSHEALHSHHTQKSLTQSPGK', 7.58);
